System: HOP-92 NSCLC
Procedure text: NCI tumour cell line growth inhibition, 48 h
Readout name: TGI

INSERT INTO measurements (molecule, experimental_value) VALUES
  ('CCCCCCNC(=O)Oc1ccc(/C(=C(\C)c2ccccc2)c2ccc(OCCN3CCCCC3)cc2)cc1', '5.04 µM');

Field: TGI. Fill in for each record below.
1. COc1cccc(/C(C=O)=C(\Cl)c2ccc(OC)c(OC)c2)c1
2. CC[C@H](Nc1nc(N)nc(N)c1Cl)c1nc2cccc(NCc3ccc(C(=O)NO)cc3)c2c(=O)n1-c1ccccc1
3. Cc1ccc(S(=O)(=O)[N-]C2C(=O)c3ccccc3C(=O)C2[n+]2cccc(C(N)=O)c2)cc1 (stereo not given)
4. O=C(Nc1cccc(C(F)(F)F)c1)c1cccc(NC2=C(Cl)C(=O)N(Cc3ccccc3)C2=O)c1

A)
38.7 µM
2.81 µM
> 100 µM
32.7 µM

---

Test system: COLO 205 colon
Procedure text: NCI tumour cell line growth inhibition, 48 h
Readout name: TGI

Take a look at these entries with their results.
INSERT INTO measurements (compound, readout_name, experimental_value) VALUES
  ('Oc1ccc(/C=N/Nc2nc3ccccc3s2)c(O)c1', 'TGI', '21.3 µM'),
  ('COc1cccc(/C(C=O)=C(\Cl)c2ccc(OC)c(OC)c2)c1', 'TGI', '27.5 µM'),
  ('COC(=O)/C(C#N)=C1\NC(=O)CC(c2ccccc2)C1C#N (centres undefined)', 'TGI', '> 100 µM');

Value sought for every listed compound: TGI.
1. C/C(=N\NC(=O)/C(C#N)=C\c1ccc(N(CCC#N)CCC#N)cc1)c1ccccc1
2. COC(=O)[C@@H](Cc1c[nH]c2ccccc12)NC(=O)/C=C/c1ccccc1
3. Cc1[nH]c(=O)nc(CC(O)(c2ccccc2)c2ccccc2)c1-c1ccccc1
4. COc1ccc(-c2onc(-c3c(C)cc(C)cc3C)c2C2=NCCCN2)cc1
5. c1ccc([C@@H]2N[C@@]3(CO[Si](c4ccccc4)(c4ccccc4)c4ccccc4)CC[C@H]4CN[C@@H]2[C@H]43)cc1

A)
> 10 µM
50.3 µM
> 100 µM
> 100 µM
3.14 µM

Q) Specify TGI for O=C(CC1(O)C(=O)Nc2ccc(Br)cc21)c1ccc(C(=O)NCC2CCC3(CC2)OOC2(CCCCC2)OO3)cc1 (centres undefined) and stop.
A) 25.5 µM

---

Test system: CAKI-1 renal
Procedure text: NCI tumour cell line growth inhibition, 48 h
Provide the reported GI50 of each item.

Recorded GI50, per entry:
INSERT INTO results (compound, readout_name, experimental_value) VALUES
  ('BrC(Br)(Br)c1cnc2ccccc2n1', 'GI50', '1.52 µM'),
  ('CCCC[P+](c1ccccc1)(c1ccccc1)c1ccccc1', 'GI50', '> 100 µM'),
  ('CCCCCC(=O)OCC(=O)O[C@@H]1C[C@]2(C(C)C)O[C@@]1(C)[C@@H]1CC[C@@H](C)[C@H]1[C@@H]2OC(=O)/C=C/c1ccccc1', 'GI50', '0.0329 µM'),
  ('Cc1c2ncccc2nc2[nH]c3ccc(OCCN(C)C)cc3c12', 'GI50', '3.61 µM'),
  ('COc1cc2nc(-c3ccc(-n4cncc4-c4ccc(N)cc4)cc3)sc2c(OC)c1OC', 'GI50', '1.41 µM');

Dear colleague, could you please provide GI50 for the compounds listed below?
1. CCCC(=O)NC(c1ccc2c(c1)OCO2)c1ccc2cccnc2c1O (configuration not stated)
2. O=C1C(Cl)=C(Nc2cccc(C(F)(F)F)c2)C(=O)N1Cc1ccccc1Cl
3. O=C(Nc1cccc2cccnc12)c1ccc(N2C(=O)[C@@H]3[C@H](C2=O)[C@@H]2C=C[C@H]3C2)cc1
4. CC(C)=CCC/C(C)=C/CC/C(=C/COP(=O)(OCc1ccc([N+](=O)[O-])o1)N(C)CCCCCl)CC=C(C)C (configuration not stated)
5. CN1CCN(Cc2ccc(NC(=O)c3[nH]ncc3Nc3ncnc4sccc34)cc2)CC1
6. CCOC(=O)c1cc2cc(NC(=O)c3cc4cc([N+](=O)[O-])ccc4n3C)ccc2n1C

A)
1: 0.669 µM; 2: 4.84 µM; 3: 21 µM; 4: 4.06 µM; 5: 0.563 µM; 6: 30.9 µM

Q) Given COc1cc(-c2nn(C(=O)NS(=O)(=O)c3ccc(C)cc3)cc2-c2ccncc2)ccc1Cl , report its GI50 on CAKI-1 renal.
A) 3.15 µM

---

Tested on: DMS 114 small cell lung
Procedure text: NCI tumour cell line growth inhibition, 48 h
Readout name: TGI (µM)
Give bare numbers, in µM.

Below: 2 compounds and their reported TGI.
INSERT INTO assay_data (compound, units_symbol, experimental_value) VALUES
  ('Cc1c(C2Cc3ccccc3N2C(=O)/C=C\C(=O)O)c2ccccc2n1C (stereo not given)', 'µM', 40),
  ('COc1cc2c(cc1OC)C(Cl)C(c1ccc(Cl)cc1)=C2Cl (stereo not given)', 'µM', 28.6);

Q) Could you please provide reported TGI for Oc1cc(O)cc(/C=C/c2ccc(O)c(O)c2)c1 ? Thanks!
A) 22.1

---

Exercise: state measured TGI for each of the molecules provided.
System: SW-620 colon
Procedure text: NCI tumour cell line growth inhibition, 48 h

INSERT INTO assay_data (molecule, readout_name, experimental_value) VALUES
  ('CCCC(=O)N/S(=N/S(=O)(=O)c1ccc(Cl)cc1)C(Cl)(Cl)Cl (stereo not given)', 'TGI', '> 100 µM'),
  ('COc1ccc2c(c1)N(C(C)=O)CN1C(=O)CCC21 (stereo not given)', 'TGI', '> 100 µM');

The following molecules each have a reported value; give each one's TGI.
1. O=C(CCCNC(=O)OCc1ccccc1)OCc1ccc2c(c1)C(=O)c1ccccc1C2=O
2. CS(=O)c1ccc(-c2nc(-c3ccc(F)cc3)c(-c3ccncc3)[nH]2)cc1 (stereo not given)
3. CC(=O)OCC(OC(C)=O)C(OC(C)=O)C(OC(C)=O)C(=O)CNn1c(-c2ccccc2)nc2ccc(Br)cc2c1=O (stereo not given)
4. Cc1c2ncccc2nc2[nH]c3ccc(OCCN(C)C)cc3c12

A)
1. > 100 µM
2. > 75 µM
3. > 100 µM
4. 13.7 µM

For each entry beneath this line, provide reported TGI.
1. CN(C)c1nc(N(C)C)n2nc(-c3ccccc3[N+](=O)[O-])nc2n1
2. C=CC[Se]C(=O)Cc1c(C)n(C(=O)c2ccc(Cl)cc2)c2ccc(OC)cc12
3. Cn1c(=O)c2c(nc(C[N+]3([O-])CCOCC3)n2C)n(C)c1=O
4. CN1CCN(Cc2ccc(NC(=O)c3[nH]ncc3Nc3ncnc4sccc34)cc2)CC1

A)
1. 24.2 µM
2. 4.42 µM
3. > 100 µM
4. > 100 µM

---

System: CAKI-1 renal
Procedure text: NCI tumour cell line growth inhibition, 48 h
Readout name: TGI

Recorded TGI, per entry:
INSERT INTO results (molecule, tested_on, experimental_value) VALUES
  ('COc1cc(-c2nn(C(=O)NS(=O)(=O)c3ccc(C)cc3)cc2-c2ccncc2)ccc1Cl', 'CAKI-1 renal', '26.9 µM'),
  ('Cc1ncc(CO)c(CN)c1O', 'CAKI-1 renal', '> 100 µM'),
  ('O=C(O)c1ccc(S(=O)(=O)N=Nc2c(O)[nH]c3ccccc23)cc1', 'CAKI-1 renal', '> 100 µM'),
  ('O=C(O)c1ccc(-c2ccc(C(=O)O)cc2I)c(I)c1', 'CAKI-1 renal', '> 100 µM'),
  ('CN(/N=C/c1ccnc2ccccc12)c1ccc([N+](=O)[O-])cc1[N+](=O)[O-]', 'CAKI-1 renal', '> 100 µM');

// each molecule listed below needs its TGI
1. CCOC(=O)c1c(C)n(CC(C)C)c2c1cc1oc(=O)c(=O)n3cnc2c13
2. Cn1c2ccccc2c(=O)c2c(O)cc3c(c21)C=CC1(CCCC1)O3

A)
1: 29.2 µM; 2: > 100 µM

For every record below, what is its TGI?
1. CCCCCCNC(=O)Oc1ccc(/C(=C(\C)c2ccccc2)c2ccc(OCCN3CCCCC3)cc2)cc1
2. O=[N+]([O-])/C(Cl)=C(\Nc1ccccc1)C(Cl)=C(Cl)Cl
3. COC(=O)c1c2c(c(C)[n+]([O-])c1C)C(=O)C(NCc1cccc(OC)c1)=CC2=O
4. COc1cccc2c1cc([N+](=O)[O-])c1c(C(=O)O)cc3c(c12)OCO3
5. CC1(C)C=[N+]([O-])C(C)(C)N1
6. CCCCSCc1nc2nc(Cl)c(Cl)nc2[nH]1
7. CC(=O)OC1OC2C(NC(=O)OC(C)(C)C)C1CC2(OCc1ccccc1)OCc1ccccc1 (configuration not stated)
8. Cn1cnc([N+](=O)[O-])c1SCC(=O)O

A)
["5.11 µM", "> 100 µM", "10.3 µM", "> 100 µM", "> 100 µM", "79.3 µM", "> 100 µM", "> 100 µM"]

Fill in TGI for each of the 6 molecules listed.
1. NCS(=O)(=O)O
2. COc1ccc(OC)c(NC(=O)C(=O)Nn2c(=S)[nH]c3ccccc3c2=O)c1
3. C=CCNC(=O)/C(Cc1cc(Br)c(OC)c(Br)c1O)=N\O
4. C=C1CC2(OC1=O)c1ccccc1C=Cc1ccccc12
5. CC(=O)NCC1(c2ccccc2)CCN(CC2COc3ccccc3O2)CC1 (configuration not stated)
6. CC(=O)c1c(O)ccc2c1CC(CC=O)O2 (configuration not stated)

A)
> 100 µM
> 100 µM
33.7 µM
6.08 µM
> 100 µM
> 100 µM

Q) Name the recorded TGI of the item COC1=CC(C2c3cc4c(cc3[C@@H](Nc3ccc([N+](=O)[O-])cc3)C3COC(=O)[C@H]23)OCO4)=CC(=O)C1=O (some centres not stated) in your answer.
A) 25.6 µM
